System: P. aeruginosa ATCC 27853
Test summary: MIC against P. aeruginosa ATCC 27853, CO-ADD
Assay type: cell-based
Assay context: Pseudomonas aeruginosa, ATCC27853; P. aeruginosa ATCC 27853; mean of two experiments; read-out: MIC P. a
Description: Antimicrobial evaluation of the pure compounds against A. baumannii ATCC 19606, Candida albicans ATCC 90028, Cryptococcus neoformans ATCC 208821, E. coli ATCC 25922, K. pneumoniae ATCC 700603, P. aeruginosa ATCC 27853, and S. aureus ATCC 43300 (MRSA) was undertaken at the Community for Open Antimicrobial Drug Discovery at The University of Queensland (St. Lucia, Queensland, Australia) according to standard protocols as previously described.
Would you kindly list MIC for each of these compounds?

What value of measured MIC is listed for `C[C@H]1CCC/C=C/[C@@H]2C[C@H](O)C[C@H]2[C@H](O)/C=C/C(=O)O1` ? > 114 µM

And C[C@@H]1CCC(=O)CCC(=O)O[C@H](C)CC[C@H](O)/C=C/C(=O)O1 [compound 4, tetrahydropyrenophorin] ? > 102 µM

And `C/C1=C\C[C@]2(C)C(=O)C(O)=C([C@H](C)CO)[C@H]2C/C=C(\C)[C@@H](O)CC/C(C)=C/CC1` ? > 79 µM

Field: MIC. Fill in for each record below.
1. CC(O)CCC(O)/C=C/C(=O)O (stereo not shown) [compound 1, (E)-4,7-dihydroxyoct-2-enoic acid]
2. C[C@@H]1C[C@H]2O[C@@H]2/C=C\C=C\C(=O)Cc2c(Cl)c(O)cc(O)c2C(=O)O1
3. COc1c(CC(C)O)c2c3c(CC(C)O)c(OC)c(=O)c4c(O)cc5c(c6c(cc(O)c(c1=O)c62)OCO5)c43 (stereo not shown)
4. CC1CCCCCC(=O)c2c(O)cc(O)cc2CC(=O)O1 (stereo not shown)

1. > 184 µM
2. > 88 µM
3. > 60 µM
4. > 109 µM

Every entry's value here was drawn from paper PMC9920077.
